# System: HOP-92 NSCLC
# EXPERIMENT SUMMARY: NCI-60 one-dose screen, 48 h (100 = growth as untreated, 0 = no growth, -100 = all killed)
# RUN CONDITIONS: 10 µM unless noted
This is part of a sample that, as a whole, favours compounds with a hit. Of some 83,000 tested, about 20% had one in any assay.
Output MET for growth not less than 70%; output NOT MET otherwise.

- Cc1[nH]c(C(=O)Nc2ccc(C(N)=O)cc2NC(C)C)c(Cl)c1Cl: MET
- CC(=O)N/C(=C1/OC(C(O)C(O)C(O)CO)CN1C)[P+](c1ccccc1)(c1ccccc1)c1ccccc1 (centres undefined): MET
- CS(=O)(=O)Nc1cc(-c2ccc3ncnc(Nc4ccc5c(cnn5Cc5cccnc5)c4)c3c2)cnc1Cl: NOT MET
- O=C(NCc1ccc2c(c1)OCO2)NCC1CCCC(CNC(=O)NCc2ccc3c(c2)OCO3)C1 (centres undefined): MET

Enquiry: Hi team, for Fc1ccc(COc2ccc(Nc3ncnc4sc5c(c34)CCCC5)cc2)cc1 , is the recorded growth at or above 70%?
Return: MET

Enquiry: Hi team, for O=C(Nc1cccnc1Nc1ccc(Cl)cc1)c1cn(Cc2ccc(F)cc2)nn1 , is the recorded growth at or above 70%?
Return: MET

Enquiry: Hi team, for Cc1nc2ccccc2c(/C=C/c2ccc(C(F)(F)F)cc2)c1C(=O)/C=C/c1ccccc1 , is the recorded growth at or above 70%?
Return: NOT MET

Enquiry: Hi team, for C=CCn1c(SCC(=O)Nc2ccc(C(=O)/C=C/c3ccc(OC)cc3)cc2)nnc1-c1ccccc1 , is the recorded growth at or above 70%?
Return: MET

Enquiry: Hi team, for CCOC(=O)Cn1c(=O)c2c3ccccc3n(C)c2n2nnc(-c3ccccc3)c12 , is the recorded growth at or above 70%?
Return: NOT MET

Enquiry: Hi team, for O=C1/C=C/[C@@H](O)[C@@H]2C[C@@H](O)C[C@H]2/C=C/CCC[C@H](CCOCc2ccccc2)O1 , is the recorded growth at or above 70%?
Return: NOT MET

---

# Test system: SNB-75 CNS
# EXPERIMENT SUMMARY: NCI-60 one-dose screen, 48 h
# RUN CONDITIONS: 10 µM unless noted
Compounds without any hit were thinned out: in the full panel of roughly 83,000, 20% have a hit. Activity calls are given as the source filed them. Rule for the calls: active = growth percent below 10; inactive = the rest.
Allowed answers: yes (1) = active, no (0) = inactive

Look over these answered cases.
- CCN1C(=O)N(CC)C2C1NN=c1s/c(=C\c3ccccc3Br)c(=O)n12 (stereo unspecified): no (0)
- Clc1nn2c(Cn3cnc4c(NCc5ccccc5)ncnc43)nnc2c2ccccc12: no (0)
- O=C(O)c1cccc(N/C=C/C(=O)c2cc3cc(Br)ccc3oc2=O)c1: no (0)
- O=C1/C=C/[C@@H](O)[C@@H]2C[C@@H](O)C[C@H]2/C=C/CCC[C@H](CCOCc2ccccc2)O1: no (0)
- CC(O)c1ncc(/C=C2\SC(=S)N(Cc3ccccc3)C2=O)s1 (stereo unspecified): no (0)
- COc1ccc(C(c2cc(OC)c(OC)c(OC)c2)N2CCN(Cc3ccccc3)CC2)cc1 (stereo unspecified): no (0)
- O=C(Cn1nnc2ccccc21)N/N=C/c1ccccc1F: no (0)
- CCN1C(=S)N(CC)C2C1NC(=S)N2/N=C/C=C/c1ccccc1OC (stereo unspecified): yes (1)

Enquiry: What is the recorded call for this molecule in the test? COc1ccc(C2=Nc3c/c(=C\c4c(O)[nH]c5cc(Cl)ccc45)ccc3=N2)cc1
Return: no (0)

Enquiry: What is the recorded call for this molecule in the test? O=c1[nH]c(-c2ccc(Cl)cc2)cn1-c1ccc(-n2cc(-c3ccc(Cl)cc3)[nH]c2=O)cc1
Return: no (0)

Enquiry: What is the recorded call for this molecule in the test? COc1ccc(C2C3=C(COC3=O)N(CCO)c3cc4c(cc32)OCCO4)cc1OC (stereo unspecified)
Return: yes (1)
